Test system: woolly cupgrass (Eriochloa villosa)
Assay: Test B pre-/postemergence plant response
Assay type: in vivo
Conditions: Preemergence, 31 g ai/ha; 0 to 100 scale, 0 no effect, 100 complete control
readout_type: Plant response rating, Cupgrass, Woolly
Output: the number by itself.

(Q) So what does the record say about Plant response rating, Cupgrass, Woolly for Cc1cc(-c2ccc(Cl)cc2)nn1-c1c(OC(=O)c2cccc(Cl)c2)cnn(C)c1=O ?
(A) 80

(Q) GET /values?readout=Plant response rating, Cupgrass, Woolly&item= CCc1cc(-c2ccc(C(F)(F)F)cc2)nn1-c1c(O)c(C)nn(C)c1=O
(A) 0

(Q) Item Cc1cc(-c2ccc(Cl)cc2)nn1-c1c(OS(=O)(=O)C(C)C)cnn(C)c1=O has what recorded Plant response rating, Cupgrass, Woolly?
(A) 98

(Q) Field request: Plant response rating, Cupgrass, Woolly | item: CCOC(=O)Oc1cnn(C)c(=O)c1-n1nc(-c2ccc(Cl)cc2)cc1C
(A) 0

(Q) Value lookup for Plant response rating, Cupgrass, Woolly; key = Cc1cc(-c2ccc(Cl)cc2)nn1-c1c(OS(=O)(=O)c2cccc3ccccc23)cnn(C)c1=O
(A) 100

(Q) // returns reported Plant response rating, Cupgrass, Woolly for input Cc1cc(-c2ccc(Cl)cc2)nn1-c1c(OC(=O)c2cccs2)cnn(C)c1=O
(A) 0

====

I'd appreciate it if you could supply Plant response rating, Barnyardgrass values for the items below.
Tested on: barnyardgrass (Echinochloa crus-galli)
Test: Test A pre-/postemergence plant response
Format: in vivo
Conditions: Postemergence, 31 g ai/ha; 0 to 100 scale, 0 no effect, 100 complete control
Answer with a bare number; do not write a unit.

(Q) For barnyardgrass (Echinochloa crus-galli), provide Plant response rating, Barnyardgrass of Cc1cc(-c2ccc(Cl)cc2)nn1-c1c(OC(=O)CC(C)C)cnn(C)c1=O please.
(A) 90

(Q) What reported Plant response rating, Barnyardgrass corresponds to Cc1cc(-c2ccc(Cl)cc2)nn1-c1c(OS(=O)(=O)C2CC2)cnn(C)c1=O on barnyardgrass (Echinochloa crus-galli)?
(A) 0

(Q) Plant response rating, Barnyardgrass of Cc1nn(C)c(=O)c(-n2nc(-c3ccc(Cl)cc3)cc2Cl)c1O on barnyardgrass (Echinochloa crus-galli)?
(A) 90

(Q) What value of Plant response rating, Barnyardgrass on barnyardgrass (Echinochloa crus-galli) does Cc1cc(-c2ccc(Cl)cc2)nn1-c1c(OS(=O)(=O)c2ccc(Cl)s2)cnn(C)c1=O have?
(A) 0

(Q) Observed Plant response rating, Barnyardgrass on barnyardgrass (Echinochloa crus-galli) for Cc1cc(-c2ccc(C(F)(F)F)c(F)c2)nn1-c1c(O)c(C(F)(F)F)nn(C)c1=O , please.
(A) 100

(Q) For the record CCc1cc(-c2ccc(Cl)cc2)nn1-c1c(O)c(C)nn(C)c1=O , what value of Plant response rating, Barnyardgrass is listed for barnyardgrass (Echinochloa crus-galli)?
(A) 100

(Q) Fill in the recorded Plant response rating, Barnyardgrass for this molecule, with barnyardgrass (Echinochloa crus-galli) as test system: CCOC(=O)Oc1cnn(C)c(=O)c1-n1nc(-c2ccc(Cl)cc2)cc1C
(A) 90

(Q) API: value(readout= Plant response rating, Barnyardgrass, system= barnyardgrass (Echinochloa crus-galli), query= Cc1cc(-c2ccc(Cl)cc2)nn1-c1c(OS(=O)(=O)C(C)C)cnn(C)c1=O )
(A) 0

====

Assign Plant response rating, Morningglory to each entry below.
Test system: pitted morningglory (Ipomoea lacunosa)
Assay: Test E pre-/postemergence plant response
Assay type: in vivo
Conditions: Postemergence, 16 g ai/ha; scale 0 to 100
Lab note: write the figure by itself, no unit.

(Q) What value of Plant response rating, Morningglory has been recorded for this entry: Cc1cc(-c2ccc(Cl)cc2)nn1-c1c(OC(=O)Oc2ccccc2)cnn(C)c1=O
(A) 0

(Q) Data request, read-out Plant response rating, Morningglory, for Cc1cc(-c2ccc(Cl)cc2)nn1-c1c(OC(=O)c2cccc(Cl)c2)cnn(C)c1=O
(A) 35

(Q) Data request, read-out Plant response rating, Morningglory, for CCc1cc(-c2ccc(Cl)cc2)nn1-c1c(O)cnn(C)c1=O
(A) 0

(Q) What does the data say about its Plant response rating, Morningglory? Entry: Cc1cc(-c2ccc(Cl)cc2)nn1-c1c(OS(=O)(=O)c2ccccc2)cnn(C)c1=O
(A) 0
